experiment: qHTS profiling of the MIPE4 collection as inhibitors of Plasmodium falciparum (DD2) proliferation (Rep 2) (AID 743346); conditions: P. falciparum Dd2 in erythrocytes, SYBR Green DNA, 72 h; at 28.5 µM unless noted
Hi there, I'd appreciate the recorded parasite growth, % of control (lower = inhibition) for every entry that follows.
Just the number in %, nothing appended.

The reported parasite growth, % of control (lower = inhibition) of the compound CCCCCCNC(=O)n1cc(F)c(=O)[nH]c1=O was 30.5

The reported parasite growth, % of control (lower = inhibition) of the compound CN1CCCC(n2nc(Cc3ccc(Cl)cc3)c3ccccc3c2=O)CC1 (configuration not stated) was 7.67

The reported parasite growth, % of control (lower = inhibition) of the compound N=C(N)c1ccc(OCCCCCOc2ccc(C(=N)N)cc2)cc1 was 15.7

The reported parasite growth, % of control (lower = inhibition) of the compound COc1ncnc(NS(=O)(=O)c2ccc(N)cc2)c1OC was 99.5

The reported parasite growth, % of control (lower = inhibition) of the compound COc1ccc(C(=O)CC(=O)c2ccc(C(C)(C)C)cc2)cc1 was 6.24

The reported parasite growth, % of control (lower = inhibition) of the compound CCc1cc(C(N)=S)ccn1 was 6.58

The reported parasite growth, % of control (lower = inhibition) of the compound CCn1cc(C(=O)O)c(=O)c2cc(F)c(N3CCN(C)CC3)cc21 was 52.8

The reported parasite growth, % of control (lower = inhibition) of the compound CCN(CC)CC#CCOC(=O)C(O)(c1ccccc1)C1CCCCC1 (configuration not stated) was 16.6

The reported parasite growth, % of control (lower = inhibition) of the compound NC1(c2ccc(-c3nc4ccn5c(=O)[nH]nc5c4cc3-c3ccccc3)cc2)CCC1 was 7.57

The reported parasite growth, % of control (lower = inhibition) of the compound COc1cccc(N(C)C(=S)Oc2ccc3c(c2)CCCC3)n1 was 34.5

The reported parasite growth, % of control (lower = inhibition) of the compound Cn1c(=O)c2c(ncn2CC(O)CO)n(C)c1=O (configuration not stated) was 96.6

The reported parasite growth, % of control (lower = inhibition) of the compound Cc1ncc([N+](=O)[O-])n1CCO was 96.3

---

system: CP191; test: qHTS profiling for inhibitors of Plasmodium falciparum proliferation (AID 504749); also: nearly all actives have a fitted effect of over 60% in size; conditions: P. falciparum in erythrocytes, SYBR Green DNA, 72 h; series mostly up to 28.7 µM
Records with an inconclusive call do not appear. Calls of active or inactive are those of the source. Calls follow the shape of the dose curve; as a rule, active = well fitted inhibition curve with a large enough effect; inconclusive = small, poorly fitted or top-dose-only effect; inactive = flat fitted curve, though single readings scatter.
// classify into Yes (active), No (inactive)

Write down the call the test reported for this molecule. Item: CCn1cc(C(=O)O)c(=O)c2cc(F)c(N3CCNCC3)cc21
No

Write down the call the test reported for this molecule. Item: COC(=O)Nc1nc2ccc(Sc3ccccc3)cc2[nH]1
No

Write down the call the test reported for this molecule. Item: NCCCC(O)(P(=O)(O)O)P(=O)(O)O
No

Write down the call the test reported for this molecule. Item: CCC(C)(C)c1ccc(CC(C)CN2C[C@@H](C)O[C@@H](C)C2)cc1 (some centres undefined)
No

Write down the call the test reported for this molecule. Item: CN(Cc1cc(Br)cc(Br)c1N)C1CCCCC1
No

Write down the call the test reported for this molecule. Item: O=S(=O)(O)CCS
No

Write down the call the test reported for this molecule. Item: O=P(O)(O)C(O)(Cc1cccnc1)P(=O)(O)O
No

Write down the call the test reported for this molecule. Item: Cc1ccnc2c1NC(=O)c1cccnc1N2C1CC1
No

Write down the call the test reported for this molecule. Item: CN(C)c1ccc(C(=C2C=CC(=[N+](C)C)C=C2)c2ccc(N(C)C)cc2)cc1
Yes

Write down the call the test reported for this molecule. Item: Cc1nnc(NS(=O)(=O)c2ccc(N)cc2)s1
No

Write down the call the test reported for this molecule. Item: O=NN(CCCl)C(=O)NC1CCCCC1
No

Write down the call the test reported for this molecule. Item: CCCc1nc(C)c2c(=O)[nH]c(-c3cc(S(=O)(=O)N4CCN(CC)CC4)ccc3OCC)nn12
No

Write down the call the test reported for this molecule. Item: Cc1noc(NS(=O)(=O)c2ccc(N)cc2)c1C
No

Write down the call the test reported for this molecule. Item: Cc1oc(=O)oc1CN1CCN(c2cc3c(cc2F)c(=O)c(C(=O)O)c2n3C(C)S2)CC1 (centres undefined)
Yes

Write down the call the test reported for this molecule. Item: CNC1CCCN(c2c(F)cc3c(=O)c(C(=O)O)cn(C4CC4)c3c2OC)C1 (centres undefined)
No

Write down the call the test reported for this molecule. Item: C#CCN[C@@H]1CCc2ccccc21
No

Write down the call the test reported for this molecule. Item: COc1cc([C@@H]2c3cc4c(cc3[C@H](O)[C@H]3COC(=O)[C@H]23)OCO4)cc(OC)c1OC
Yes

Write down the call the test reported for this molecule. Item: C1CCC(C(CC2CCCCN2)C2CCCCC2)CC1 (centres undefined)
Yes

Write down the call the test reported for this molecule. Item: CCn1cc(C(=O)O)c(=O)c2cc(F)c(N3CCNCC3)nc21
No

Write down the call the test reported for this molecule. Item: NC(=O)c1cccnc1
No

Write down the call the test reported for this molecule. Item: COc1nc(N)nc2c1ncn2[C@@H]1O[C@H](CO)[C@@H](O)[C@@H]1O
No

Write down the call the test reported for this molecule. Item: CC1=CC(=O)c2ccccc2C1=O
No

Write down the call the test reported for this molecule. Item: CC(C)NCC(O)c1ccc(NS(C)(=O)=O)cc1 (centres undefined)
No

Write down the call the test reported for this molecule. Item: C[C@]12C=CC(=O)C=C1CC[C@@H]1[C@@H]2C(=O)C[C@@]2(C)[C@H]1CC[C@]2(O)C(=O)CO
No

---

assay: qHTS of pediatric cancer cell lines to identify multiple opportunities for drug repurposing: Primary screen for NB1643 cells (AID 1347099); conditions: NB1643 neuroblastoma viability, CellTiter-Glo luminescence, 48 h; series mostly up to 46 µM; also: nearly all actives have a fitted effect of over 50% in size
Results filed as inconclusive are left out. Activity calls are given as the source filed them. Calls follow the shape of the dose curve; as a rule, active = well fitted cell-killing curve with a large enough effect; inconclusive = small, poorly fitted or top-dose-only effect; inactive = no such curve, though single readings can be large or run the other way.
// classify into y for active, n for inactive

Write down the call the test reported for this compound. Item: CC(=O)[C@H]1CC[C@H]2[C@@H]3CC=C4C[C@@H](O)CC[C@]4(C)[C@H]3CC[C@]12C
n

Write down the call the test reported for this compound. Item: O=P(O)(O)C(O)(Cc1cccnc1)P(=O)(O)O
n

Write down the call the test reported for this compound. Item: COc1cc(NS(=O)(=O)c2ccc(N)cc2)nc(OC)n1
n

Write down the call the test reported for this compound. Item: CC(C)C1CCC(C(=O)N[C@H](Cc2ccccc2)C(=O)O)CC1 (stereo not given in full)
n

Write down the call the test reported for this compound. Item: CC1=C(C(=O)O)N2C(=O)[C@@H](NC(=O)C(N)c3ccccc3)[C@H]2SC1 (stereo not given in full)
n

Write down the call the test reported for this compound. Item: CN1CCN(c2c(F)cc3c(=O)c(C(=O)O)cn4c3c2OCN4C)CC1
n

Write down the call the test reported for this compound. Item: CNNCc1ccc(C(=O)NC(C)C)cc1
n

Write down the call the test reported for this compound. Item: O=NN(CCCl)C(=O)NC1CCCCC1
n

Write down the call the test reported for this compound. Item: NNC(=O)c1ccncc1
n

Write down the call the test reported for this compound. Item: Cc1cccc(Nc2ccncc2S(=O)(=O)NC(=O)NC(C)C)c1
n

Write down the call the test reported for this compound. Item: CCc1cc(C(N)=S)ccn1
n

Write down the call the test reported for this compound. Item: O=C(O)CCn1c2c(c3ccccc31)C[C@H](NS(=O)(=O)c1ccc(F)cc1)CC2
n

Write down the call the test reported for this compound. Item: Nc1nc(N)nc(-c2cc(Cl)ccc2Cl)n1
n

Write down the call the test reported for this compound. Item: CO[C@@]12[C@H](COC(N)=O)C3=C(C(=O)C(C)=C(N)C3=O)N1C[C@@H]1N[C@@H]12
y

Write down the call the test reported for this compound. Item: CC(C)OC(=O)C(C(=O)OC(C)C)=C1SC=CS1
n

Write down the call the test reported for this compound. Item: C#CCN[C@@H]1CCc2ccccc21
n

Write down the call the test reported for this compound. Item: CCn1cc(C(=O)O)c(=O)c2cc(F)c(N3CCN(C)CC3)cc21
n

Write down the call the test reported for this compound. Item: CC1=NN(c2ccccc2)C(=O)C1
n

Write down the call the test reported for this compound. Item: N=C(N)c1ccc(OCCCCCOc2ccc(C(=N)N)cc2)cc1
y

Write down the call the test reported for this compound. Item: CNC(=O)c1cc(Oc2ccc(NC(=O)Nc3ccc(Cl)c(C(F)(F)F)c3)cc2)ccn1
y

Write down the call the test reported for this compound. Item: O=C(O)c1cn(C2CC2)c2cc(N3CCNCC3)c(F)cc2c1=O
n

Write down the call the test reported for this compound. Item: CC(C)(Sc1cc(C(C)(C)C)c(O)c(C(C)(C)C)c1)Sc1cc(C(C)(C)C)c(O)c(C(C)(C)C)c1
n

Write down the call the test reported for this compound. Item: CC(N)C12CC3CC(CC(C3)C1)C2 (stereo not given)
n

Write down the call the test reported for this compound. Item: Cc1oc(=O)oc1CN1CCN(c2cc3c(cc2F)c(=O)c(C(=O)O)c2n3C(C)S2)CC1 (stereo not given)
n

Write down the call the test reported for this compound. Item: NCCCC(O)(P(=O)(O)O)P(=O)(O)O
n

Write down the call the test reported for this compound. Item: CCC(C)(C)c1ccc(CC(C)CN2C[C@@H](C)O[C@@H](C)C2)cc1 (stereo not given in full)
n

Write down the call the test reported for this compound. Item: COc1nc(N)nc2c1ncn2[C@@H]1O[C@H](CO)[C@@H](O)[C@@H]1O
n

Write down the call the test reported for this compound. Item: Cc1onc(-c2ccccc2Cl)c1C(=O)N[C@@H]1C(=O)N2[C@@H]1SC(C)(C)[C@@H]2C(=O)O
n

Write down the call the test reported for this compound. Item: CC1(C)[C@H](C(=O)O)N2C(=O)C[C@H]2S1(=O)=O
n

Write down the call the test reported for this compound. Item: Cc1c(-c2ccc(O)cc2)n(Cc2ccc(OCCN3CCCCCC3)cc2)c2ccc(O)cc12
n

Write down the call the test reported for this compound. Item: Nc1nc(N)c2nc(CNc3ccc(C(=O)NC(CCC(=O)O)C(=O)O)cc3)cnc2n1 (stereo not given)
n

Write down the call the test reported for this compound. Item: CCOc1cc(N)c(Cl)cc1C(=O)NCC1CN(Cc2ccc(F)cc2)CCO1 (stereo not given)
n

Write down the call the test reported for this compound. Item: COc1cc([C@@H]2c3cc4c(cc3[C@H](O)[C@H]3COC(=O)[C@H]23)OCO4)cc(OC)c1OC
y

Write down the call the test reported for this compound. Item: C[C@@H]1C[C@H]2[C@@H]3CCC4=CC(=O)C=C[C@]4(C)[C@@]3(Cl)[C@@H](O)C[C@]2(C)[C@@]1(OC(=O)c1ccco1)C(=O)CCl
y

Write down the call the test reported for this compound. Item: CN1CCN(c2c(F)cc3c(=O)c(C(=O)O)cn(CCF)c3c2F)CC1
n

Write down the call the test reported for this compound. Item: Cc1noc(NS(=O)(=O)c2ccc(N)cc2)c1C
n

Write down the call the test reported for this compound. Item: CCN(C)C(=O)Oc1cccc([C@H](C)N(C)C)c1
n

Write down the call the test reported for this compound. Item: CC(C)(C#N)c1cc(Cn2cncn2)cc(C(C)(C)C#N)c1
n

Write down the call the test reported for this compound. Item: CN(C)CCc1c[nH]c2ccc(C[C@H]3COC(=O)N3)cc12
n

Write down the call the test reported for this compound. Item: C[C@]12C=CC(=O)C=C1CC[C@@H]1[C@@H]2C(=O)C[C@@]2(C)[C@H]1CC[C@]2(O)C(=O)CO
n

Write down the call the test reported for this compound. Item: CCCCS(=N)(=O)CCC(N)C(=O)O (stereo not given)
n

Write down the call the test reported for this compound. Item: Cn1nnc2c(C(N)=O)ncn2c1=O
n

Write down the call the test reported for this compound. Item: CNS(=O)(=O)Cc1ccc2[nH]cc(CCN(C)C)c2c1
n

Write down the call the test reported for this compound. Item: NC(=O)c1cccnc1
n

Write down the call the test reported for this compound. Item: COc1cc(NCc2ccc3nc(N)nc(N)c3c2C)cc(OC)c1OC
y
